FYI, the data here is from patent US12617777B2.

Quick reference for IC50 among some molecules
# ASSAY_SYSTEM: human GPR84 receptor (Homo sapiens, UniProt Q9NQS5)
# Sequence (Q9NQS5 whole entry): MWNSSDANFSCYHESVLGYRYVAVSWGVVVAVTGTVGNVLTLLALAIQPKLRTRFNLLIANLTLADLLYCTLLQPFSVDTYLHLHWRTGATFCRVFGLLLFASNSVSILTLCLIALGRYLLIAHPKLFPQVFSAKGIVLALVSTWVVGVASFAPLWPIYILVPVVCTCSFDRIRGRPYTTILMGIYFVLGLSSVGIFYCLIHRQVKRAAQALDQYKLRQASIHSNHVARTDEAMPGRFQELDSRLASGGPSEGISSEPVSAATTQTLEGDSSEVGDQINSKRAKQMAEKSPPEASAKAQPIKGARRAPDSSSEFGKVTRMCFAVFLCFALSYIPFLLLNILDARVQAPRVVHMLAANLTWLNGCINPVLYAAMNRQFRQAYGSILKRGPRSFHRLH
# TEST_PROTOCOL: Gαi biosensor BRET assay in HEK293 cells (antagonism of ZQ-16)
# TEST_SETTINGS: HEK293 cells, antagonism of 200 nmol/L ZQ-16

{"columns": ["MOLECULE", "ATTRIBUTE_MEASURED", "MEASURED"],
 "data": [
  ["CC(C)Oc1cc(C#CC2CC2)cnc1-c1cn(CC2CCCCO2)nn1 (centres unmarked) [Compound I-478]", "IC50", "≤ 300 nM"]
]}

Recorded result, Cc1cc(N2CC(C)(C)C2)c(C)cc1-c1cn(CC2OCC(C)(C)CO2)nn1 [Compound I-685] , IC50: 1000 to 3000 nM

// field: IC50; key: CC1(CO)CN(c2ccc(-c3cn(CC4OCC5(CCC5)O4)nn3)c(CC(F)(F)F)c2)C1 (centres unmarked) [Compound I-796] ; value = ≤ 300 nM

Looking up Cc1cc(N2C3CCC2CN(Cc2ccccn2)C3)ccc1-c1cn(CC2CCCCO2)nn1 (centres unmarked) [Compound I-430] , I see its IC50 listed as 300 to 1000 nM

Lab note: CCc1cc(C#CC2CC2)cnc1-c1cn(CC2CCCCO2)nn1 (centres unmarked) [Compound I-220] gave IC50 of 300 to 1000 nM

Record CC1(C)COC(Cn2cc(-c3ccc(N4CC(C)(CO)C4)cc3CC(F)(F)F)nn2)OC1 [Compound I-735] , field IC50: ≤ 300 nM

Summary for this molecule, Cc1cc(N2CC(C)(CNc3ccccn3)C2)ccc1-c1cn(CC2OCC(C)(C)CO2)nn1 [Compound I-673] : IC50 is ≤ 300 nM

Documented IC50 of C(#CC1CC1)c1ccc(-c2cn(C[C@H]3CCCO3)nn2)cc1 [Compound I-27] : > 3000 nM

IC50 in this record for Cc1cc(N2CC3(C2)CN(c2ccccn2)C3)ccc1-c1cn(CC2OCC(C)(C)CO2)nn1 [Compound I-663] : > 3000 nM

For reference, reported IC50 for CCc1cc(C#CCOC2CC2)ccc1-c1cn(CC2OCC(C)(C)CO2)nn1 [Compound I-780] stands at 300 to 1000 nM

----------
# ASSAY_SYSTEM: human GPR84 receptor (Homo sapiens, UniProt Q9NQS5)
# Construct: host or cells: HEK293, transient transfection
# TEST_PROTOCOL: Gαi biosensor BRET assay in HEK293 cells (antagonism of ZQ-16)
# Assay type: cell-based
# TEST_SETTINGS: HEK293, single concentration 10 μM (designated F)
ATTRIBUTE_MEASURED: inhibition at 10 µM

Study these solved cases before continuing.
{"columns": ["COMPOUND", "inhibition at 10 µM"],
 "data": [
  ["Cc1cc(C#CCn2cc(-c3ccc([N+](=O)[O-])cc3)nn2)ccc1-c1cn(CC2CCCCO2)nn1 (stereo not shown) [Compound I-454]", "> 75%"],
  ["CC(=O)NCC#Cc1ccc(-c2cn(C[C@H]3CCCCO3)nn2)c(C)c1 [Compound I-193]", "25 to 50%"],
  ["Cc1ccc(OCc2ccccn2)cc1Cc1cn(CC2CCCCO2)nn1 (stereo not shown) [Compound I-444]", "≤ 25%"],
  ["Cc1cc(C#CC2CC2)ccc1-c1cn(CC2OCC(c3ccccc3)CO2)nn1 (stereo not shown) [Compound I-704]", "≤ 25%"],
  ["COC(C)(c1cn(CC2CCCCO2)nn1)c1cc(C#CC2CC2)ccc1C (stereo not shown) [Compound I-680]", "50 to 75%"]
]}

// compound COC(=O)c1cc(C#CC2CC2)ccc1-c1cn(CC2CCCCO2)nn1 (stereo not shown) [Compound I-214] , assay human GPR84 receptor (Homo sapiens, UniProt Q9NQS5), inhibition at 10 µM value: ≤ 25%

Observed inhibition at 10 µM, human GPR84 receptor (Homo sapiens, UniProt Q9NQS5), Cc1cc(N2CC(C(C)(C)O)C2)ccc1-c1cn(CC2CCCCO2)nn1 (stereo not shown) [Compound I-477] : 50 to 75%

Let me check: Cc1cc(C#CC2CC2)ccc1-c1cn(CC2CCCCN2S(C)(=O)=O)nn1 (stereo not shown) [Compound I-191] , system human GPR84 receptor (Homo sapiens, UniProt Q9NQS5), measured inhibition at 10 µM is ≤ 25%

----------
# ASSAY_SYSTEM: human GPR84 receptor (Homo sapiens, UniProt Q9NQS5)
# Construct: host or cells: HEK293, transient transfection
# TEST_PROTOCOL: Gαi biosensor BRET assay in HEK293 cells (antagonism of ZQ-16)
# Assay type: cell-based
# TEST_SETTINGS: HEK293, single concentration 10 μM (designated F)
ATTRIBUTE_MEASURED: inhibition at 10 µM

The examples below pair each entry with its known result.
{"columns": ["MOLECULE", "inhibition at 10 µM"],
 "data": [
  ["Cc1cc(N2CC(C)C2)ccc1-c1cn(CC2CCCCO2)nn1 (stereo not shown) [Compound I-264]", "50 to 75%"],
  ["FC(F)(F)c1cc(C#CC2CC2)ccc1-c1cn(CC2CCCCO2)nn1 (stereo not shown) [Compound I-81]", "50 to 75%"],
  ["Cc1cc(N2CC(C)(N(C)Cc3ccccc3)C2)ccc1-c1cn(CC2CCCCO2)nn1 (stereo not shown) [Compound I-553]", "25 to 50%"]
]}

Now turn to the next molecule.
What the record says about COC(=O)N1CCOC(Cn2cc(-c3ccc(C#CC4CC4)cc3C)nn2)C1 (stereo not shown) [Compound I-105] : inhibition at 10 µM is ≤ 25%

----------
# ASSAY_SYSTEM: UniProt:Q9NQS5
# TEST_PROTOCOL: Gαi biosensor BRET assay in HEK293 cells (antagonism of ZQ-16)
# TEST_SETTINGS: HEK293 cells, antagonism of 200 nmol/L ZQ-16
Entries annotated with measured IC50

{"columns": ["COMPOUND", "MEASURED"],
 "data": [
  ["C(#CC1CC1)c1cnc(-c2cn(C[C@H]3CCCCO3)nn2)c(OC2CC2)c1", "≤ 300 nM"],
  ["CC(C)Oc1cc(C#CCNc2ccccc2)cnc1-c1cn(CC2CC(C)(C)CO2)nn1 (stereo not drawn)", "≤ 300 nM"],
  ["CC(=O)N(c1cn(CC2OCC(C)(C)CO2)nn1)c1cc(C#CC2CC2)ccc1C", "300 to 1000 nM"]
]}

Short answer on UniProt:Q9NQS5 for C[C@@H]1Cc2oc(C(=O)NCc3cnc(C4CC4)cn3)c(C(F)(F)F)c2-c2nn(C[C@H]3COCCO3)cc21 , IC50: ≤ 300 nM

Tested on UniProt:Q9NQS5: CC1(C)COC(Cn2cc(-c3ncc(N4CC(C)(CO)C4)cc3Cl)nn2)OC1 . Observed IC50: 1000 to 3000 nM

Tested system UniProt:Q9NQS5; IC50 recorded for CC1(C)COC(Cn2cc(-c3ncc(N4CC(C)(CO)C4)cc3OC3CC3)nn2)OC1 was 300 to 1000 nM

# Cc1cc(C#CCNC(=O)Oc2ccccc2)ccc1-c1cn(CC2CCCCO2)nn1 (stereo not drawn) with UniProt:Q9NQS5: IC50 is ≤ 300 nM

Bench note, UniProt:Q9NQS5: Cc1cc(C#CC2(O)CCCCC2)ccc1-c1cn(CC2CCCCO2)nn1 (stereo not drawn) , IC50 reads 1000 to 3000 nM

The observed IC50 for CN(C)c1cc(C#CCNc2ccccc2)ccc1-c1cn(CC2CCCCO2)nn1 (stereo not drawn) when tested with UniProt:Q9NQS5 stands at 1000 to 3000 nM

Observed IC50 on UniProt:Q9NQS5, entry Cc1ccccc1-c1cn(CC#Cc2cnc(-c3cn(CC4CCCCO4)nn3)c(C)c2)nn1 (stereo not drawn) , equals 300 to 1000 nM

Recorded IC50 for Cc1cc(C#CCNC2CC2)ccc1-c1cn(CC2OCC(C)(C)CO2)cn1 on UniProt:Q9NQS5 was 300 to 1000 nM

Item Cc1cc(C#CCn2cc(-c3ccc(N(C)C)cc3)nn2)cnc1-c1cn(CC2OCC(C)(C)CO2)nn1 was tested on UniProt:Q9NQS5; the reported IC50 is ≤ 300 nM

I looked up Cc1cc(N2CCN(C(=O)c3ccccc3)CC2)ccc1-c1cn(CC2CCCCO2)nn1 (stereo not drawn) and its IC50 for UniProt:Q9NQS5 was 1000 to 3000 nM

Item C=C(c1cncc(C#CC2CC2)c1)c1cn(CC2CCCCO2)nn1 (stereo not drawn) ; assay system UniProt:Q9NQS5; IC50 reported as > 3000 nM

# lookup: COC(c1cn(CC2OCC(F)(F)CO2)nn1)c1cc(C#CC2CC2)ccc1C (stereo not drawn) on UniProt:Q9NQS5, IC50 = 300 to 1000 nM

Short answer on UniProt:Q9NQS5 for Cc1cc(N2CC(C)(CNc3ccccc3)C2)ccc1-c1cn(CC2CCCCO2)nn1 (stereo not drawn) , IC50: ≤ 300 nM

Field IC50 (UniProt:Q9NQS5), entry CN(C)c1cc(C#CCNCc2ccccc2)ccc1-c1cn(CC2CCCCO2)nn1 (stereo not drawn) : > 3000 nM

Measured on UniProt:Q9NQS5, CN(C)c1cc(N2CC(C)(C)C2)ccc1-c1cn(CC2CCCCO2)nn1 (stereo not drawn) has a documented IC50 of 1000 to 3000 nM

UniProt:Q9NQS5 IC50 of Cc1cc(N2CC(C)(C)C2)ccc1-c1cn(CC2CCCCO2)nn1 (stereo not drawn) [Compound I-864] is 300 to 1000 nM

Noted IC50 for CC1(C)COC(Cn2cc(-c3ccc(N4CC(C)(NCc5ccccn5)C4)cc3CC(F)(F)F)nn2)OC1 , tested on UniProt:Q9NQS5: 300 to 1000 nM

Let me check: Cc1cc(C#CC(C)(C)C)ccc1-c1cn(CC2CCCCO2)nn1 (stereo not drawn) , system UniProt:Q9NQS5, measured IC50 is 1000 to 3000 nM

Cc1cc(C#CCNc2ccccc2)ccc1-c1cn(CC2CCCCO2)nn1 (stereo not drawn) on UniProt:Q9NQS5 gives IC50 = 1000 to 3000 nM

Tested system UniProt:Q9NQS5; IC50 recorded for COC(c1cn(Cc2ncccn2)nn1)c1cc(C#CC2CC2)ccc1C (stereo not drawn) was 300 to 1000 nM

Let me check: FC(F)(F)Cc1cc(C#CC2CC2)cnc1-c1cn(C[C@H]2CCCCO2)nn1 , system UniProt:Q9NQS5, measured IC50 is ≤ 300 nM

The observed IC50 for Cc1cc(C#CC2CC2)ccc1-c1cn(CC2OCCCO2)nn1 when tested with UniProt:Q9NQS5 stands at 1000 to 3000 nM

Kindly note: UniProt:Q9NQS5, CO[C@H](c1cn(C[C@@H]2CCCCO2)nn1)c1cc(C#CC2CC2)ccc1C , IC50 value reported: 300 to 1000 nM
